All figures here come from patent US20240059799A1.

Biological target: T1, recombinant human TL1A (human, UniProt O95150 71-251)
T1 construct: The ELISA method says only 'recombinant TL1A' coated on plates; homotrimeric cytokine; also called TNFSF15; recombinant TL1A
T1 chain: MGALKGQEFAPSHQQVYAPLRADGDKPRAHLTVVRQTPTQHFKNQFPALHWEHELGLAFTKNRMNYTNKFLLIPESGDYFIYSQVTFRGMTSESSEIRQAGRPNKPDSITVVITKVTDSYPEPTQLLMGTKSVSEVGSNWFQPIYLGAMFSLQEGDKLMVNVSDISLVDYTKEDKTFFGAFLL
Test: competition ELISA on coated recombinant TL1A; competitor biotinylated TL1A-0002
RECORDED ENDPOINT: Bioactivity relative to TL1A-0002 (fold)
Output spec: scalar in fold, unitless text.

TL1A-0256 (antibody, human IgG1, kappa, V domains shown, human IgG1 effector-function-minimized / human kappa) VH: QVQLVQSGAEVKKPGASVKVSCKASGYDYTYYGISWVRQAPGQGLEWMGWISTYNDNTHYAPSLQGRVTMTTDTSTSTAYMELRSLRSDDTAVYYCARESYYGSGAFRGGMDVWGQGTTVTVSS VL: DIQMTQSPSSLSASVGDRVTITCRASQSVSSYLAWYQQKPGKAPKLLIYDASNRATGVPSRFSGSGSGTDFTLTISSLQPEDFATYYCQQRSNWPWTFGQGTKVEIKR = 2.3

Proceed to the following item.
Prompt line: Entry TL1A-0295 (antibody, human IgG1, kappa, V domains shown, human IgG1 effector-function-minimized / human kappa) VH: QVQLVQSGAEVKKPGASVKVSCKASGYDFTYYGVSWVRQAPGQGLEWMGWISTYNTNTHYAPSLQGRVTMTTDTSTSTAYMELRSLRSDDTAVYYCARESYYGSGAHRGGMDVWGQGTTVTVSS VL: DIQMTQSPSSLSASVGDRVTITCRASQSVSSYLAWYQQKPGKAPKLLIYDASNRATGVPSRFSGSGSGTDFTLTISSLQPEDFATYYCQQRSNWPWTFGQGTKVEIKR has what Bioactivity relative to TL1A-0002?
Response line: 2.4
